Measured values drawn from patent US20080261994A1 for this set.

Target: Recombinant Human MMP-13 (Homo sapiens, UniProt P45452)
Construct: purchased R&D systems 511-MM
Assay: MMP-13 inhibitory activity (MMP-13 specific fluorescent substrate with quencher)
Format: biochemical
Details: Recombinant Human MMP-13, fluorescent substrate, 25° C. for 1 h; read-out: IC50 MMP13 (Experimental Example 3)
pIC50: −log10 of the molar value.
Endpoint label: pIC50

Observe how each entry below is paired with its result.
Compound: O=C(O)C1(NS(=O)(=O)c2ccc(-c3ccc(Cl)cc3)s2)CC1C1CCCC1 (centres unmarked)
pIC50: > 6.00
--
Compound: O=C(O)C1(NS(=O)(=O)N2CCN(c3ccc(C(F)(F)F)cc3)CC2)CC1c1ccccc1 (centres unmarked)
pIC50: > 7.00
--
Compound: CC(C)(O)C#Cc1ccc(S(=O)(=O)N[C@@]2(C(=O)O)C[C@@H]2c2ccccc2)s1
pIC50: ≤ 6.00
--
Compound: CN(C)C(=O)Cc1ccccc1C1CC1(NS(=O)(=O)c1ccc(-c2ccc(Cl)cc2)s1)C(=O)O (centres unmarked)
pIC50: > 6.00
--
Compound: CN1CCN(C(=O)OCCCc2cccc(C3CC3(NS(=O)(=O)c3ccc(-c4cc(C(F)(F)F)on4)s3)C(=O)O)c2)CC1 (centres unmarked)
pIC50: > 7.00
--
Compound: O=C(O)[C@]1(NS(=O)(=O)c2ccc3c(c2)Cc2cc(Cl)ccc2-3)C[C@@H]1c1ccccc1
pIC50: > 6.00
--
Compound: CN1CCN(C(=O)Cc2cccc(C3CC3(NS(=O)(=O)c3ccc(-c4cc(C(F)(F)F)on4)s3)C(=O)O)c2)CC1 (centres unmarked)
pIC50: > 7.00
--
Compound: C#Cc1cnn(-c2ccc(S(=O)(=O)N[C@@]3(C(=O)O)[C@H](C)[C@@H]3c3ccccc3)s2)c1
pIC50: > 7.00

Exercise: Fill in pIC50 for record COC(=O)c1cccc(C2CC2(NS(=O)(=O)c2ccc(-c3ccc(Cl)cc3)s2)C(=O)O)c1 (centres unmarked)
Key: > 6.00

Exercise: Fill in pIC50 for record O=C(NCCO)c1ccccc1C1CC1(NS(=O)(=O)c1ccc(-c2ccc(Cl)cc2)s1)C(=O)O (centres unmarked)
Key: > 6.00

Exercise: Fill in pIC50 for record CC(F)(F)c1cc(-c2ccc(S(=O)(=O)N[C@@]3(C(=O)O)C[C@@H]3c3ccccc3)s2)no1
Key: > 7.00

Exercise: Fill in pIC50 for record O=C(O)[C@]1(NS(=O)(=O)c2ccc(-c3ccc(Cl)cn3)s2)C[C@@H]1c1ccccc1
Key: > 7.00

Exercise: Fill in pIC50 for record O=C(O)C1(NS(=O)(=O)c2ccc(-c3ccc(Cl)cc3)cc2)CC1c1cccc(NCc2cccnc2)c1 (centres unmarked)
Key: > 7.00

Exercise: Fill in pIC50 for record CC1(C)COC(c2ccccc2C2CC2(NS(=O)(=O)c2ccc(-c3ccc(Cl)cc3)s2)C(=O)O)=N1 (centres unmarked)
Key: > 6.00
